Below, each entry is listed with its recorded growth.
Test system: HOP-92 NSCLC
Assay: NCI-60 one-dose screen, 48 h (100 = growth as untreated, 0 = no growth, -100 = all killed)
Details: 10 µM unless noted
About 83,000 compounds went through this panel and 20% of them were active in at least one assay; those are over-represented in the sample as a whole.
Form entry: value (%) — number only.

Check out these entries, answers already filled in.
record-smiles | tested-system | reported
Clc1ccccc1/C=C/c1nn2c(-c3ccncc3)nnc2s1 | HOP-92 NSCLC | 103
O=C1c2c(c3c4cc(Br)ccc4[nH]c3c3ccc4ccccc4c23)C(=O)N1CCN1CCCCC1 | HOP-92 NSCLC | 51.3
ClC(Cl)c1nc(-c2cccs2)n2nc(-c3ccccc3)cc2n1 | HOP-92 NSCLC | -27.7
COc1ccc(S(=O)(=O)NCCCNc2nccc(-n3cnc4ccccc43)n2)cc1 | HOP-92 NSCLC | 75.8
NS(=O)(=O)c1ccc(Nc2nc(N/N=C/c3ccc([N+](=O)[O-])cc3)nc(Nc3ccccc3)n2)cc1 | HOP-92 NSCLC | 49.1
O=C1Nc2cc(OC(F)(F)F)ccc2Oc2ccc(-c3ccnc(N4CC[C@H](O)C4)c3)cc21 | HOP-92 NSCLC | 45.7
COc1ccc(N)cc1C(=O)Nc1cccc(-c2cc(=O)c3c(OC)c(OC)c(OC)cc3o2)c1 | HOP-92 NSCLC | 8.78

Now for a further compound.
Need growth, item NS(=O)(=O)Oc1ccc2nc(Nc3ccc(F)c(F)c3)ccc2c1
115

* * *

System: HOP-92 NSCLC
Experiment: NCI-60 one-dose screen, 48 h (100 = growth as untreated, 0 = no growth, -100 = all killed)
Settings: 10 µM unless noted
The panel holds about 83,000 compounds, 20% with a hit somewhere; the sample as a whole holds those more often.
Use 40% as the dividing line for growth, with the line itself on the met side and lower values as not met.

Below are worked cases with known answers.
compound | cat
C=C(C)[C@@H]1CC[C@]2(C(=O)ON)CC[C@]3(C)[C@H](CC[C@@H]4[C@@]5(C)C/C(=C/c6ccc(Br)cc6)C(=O)C(C)(C)[C@@H]5CC[C@]43C)[C@@H]12 | met
CCN1C(=O)N(CC)C2C1NN=C1SC(c3ccccc3)=CC(=O)N12 (centres undefined) | met
CC(=O)Nc1cccc(-n2cnc3cc(-c4ccc(O)cc4)ccc32)c1 | met
O=C1c2c(c3c4cccnc4[nH]c3c3ccc4ccccc4c23)C(=O)N1CCN1CCCCC1 | met
Clc1ccc(-c2nc3ccc(/C(=N\N=C\c4ccccc4)c4ccccc4)cc3[nH]2)cc1 | met

Please tell me: is the compound CC(=O)Oc1ccc(CCN2C(=O)CSC2=S)cc1 at or over 40% in terms of growth?
met

Please tell me: is the compound COC[C@]12CC[C@@H](C)[C@H](C)[C@H]1C1=CC[C@@H]3[C@@]4(C)CCCNC(C)(C)[C@@H]4CC[C@@]3(C)[C@]1(C)CC2 at or over 40% in terms of growth?
met

Please tell me: is the compound CCC(CC)N1C(=O)/C(=c2\sc3n(c2=O)C2C(NN=3)N(CC)C(=O)N2CC)c2ccccc21 (centres undefined) at or over 40% in terms of growth?
met

Please tell me: is the compound COc1cc2oc(-c3cccc(NC(=O)c4cc(NC(=O)[C@H](C)NC(=O)OC(C)(C)C)ccc4C)c3)cc(=O)c2c(OC)c1OC at or over 40% in terms of growth?
not met

Please tell me: is the compound CS(=O)c1nccc(-c2c(-c3ccc(F)c(OCc4ccc(F)cc4)c3)nc3sccn23)n1 (centres undefined) at or over 40% in terms of growth?
not met

Please tell me: is the compound CN1CCN(Cc2ccc(NC(=O)c3cncc(C#Cc4[nH]nc5ncncc45)c3)cc2C(F)(F)F)CC1 at or over 40% in terms of growth?
not met

Please tell me: is the compound COc1ccc(-c2nc(SCC(C)C)nc(N/N=C\c3cccc([N+](=O)[O-])c3)c2C#N)cc1 at or over 40% in terms of growth?
not met

Please tell me: is the compound CN(C)C(=O)C1=NC(CO)C(=O)N(c2ccc(Cl)cc2)N1 (centres undefined) at or over 40% in terms of growth?
met

* * *

Below, each entry is listed with its recorded growth.
Tested on: HT29 colon
Test: NCI-60 one-dose screen, 48 h (100 = growth as untreated, 0 = no growth, -100 = all killed)
Settings: 10 µM unless noted
About 83,000 compounds went through this panel and 20% of them were active in at least one assay; those are over-represented in the sample as a whole.
Form entry: value (%) — number only.

compound | tested-system | readout | measure-unit | reported
CC(=O)C1=NN(c2ccc(Cl)cc2)C(=O)CN1C | HT29 colon | growth | % | 102
CS(=O)(=O)c1ccc2c(c1)c1c(n2S(=O)(=O)c2ccc(Cl)cc2)CCCC1 | HT29 colon | growth | % | 5.37
O=C(NNc1nc2cc(F)ccc2n2cncc12)c1cnccn1 | HT29 colon | growth | % | 33.1
C/C=C/C=C1\C[C@H]2CO[C@H](O2)C1=O | HT29 colon | growth | % | 108
COC(=O)[C@@]1(C)CC[C@]2(C)CC[C@]3(C)C(=CC(=O)[C@@H]4[C@@]5(C)Cc6c(n(CC#CCN7CCN(C)CC7)c7ccccc67)C(C)(C)[C@@H]5CC[C@]43C)[C@@H]2C1 | HT29 colon | growth | % | 14.4

Need growth, item Cc1cc(Cl)cc(NS(=O)(=O)c2ccc(-c3cnc(C4CC4)o3)cc2)c1
10.7

Need growth, item O=C(Nc1cccc(Cl)c1)Nc1nc2ccc([N+](=O)[O-])cc2s1
4.55

Need growth, item CN1CCN(c2nc(-c3csc(-c4ccncc4)n3)cc3ccccc23)CC1
26.5

Need growth, item O=C1[C@@H]2Cc3c([nH]c4ccccc34)[C@H](c3c(Cl)cccc3Cl)N2C(=O)CN1C1CCN(Cc2c(F)cccc2F)CC1
63.9

Need growth, item COc1ccc(-c2nnc(/N=C3/C(=O)Nc4ccc(Br)cc43)o2)cc1
113

Need growth, item O=C(CCCCCCN1CC(=O)N2[C@@H](c3cc(F)cc(F)c3)c3[nH]c4ccccc4c3C[C@H]2C1=O)NO
47.8

* * *

System: RPMI-8226 leukemia
Experiment: NCI-60 one-dose screen, 48 h (100 = growth as untreated, 0 = no growth, -100 = all killed)
Settings: 10 µM unless noted
The panel holds about 83,000 compounds, 20% with a hit somewhere; the sample as a whole holds those more often.
Use 20% as the dividing line for growth, with the line itself on the Y side and lower values as N.

compound | cat
CCn1c2ccc(/C=N/OCCCN(C)C)cc2c2cc(/C=N/OCCCN(C)C)ccc21 | N
Cc1ccccc1NC1CC(=O)N(c2ccc(Cl)cc2Cl)C1=O (centres undefined) | Y
N#Cc1c(-c2ccccc2)cc(-c2c[nH]c3ccccc23)nc1-c1c[nH]c2ccccc12 | Y

Please tell me: is the compound O=C(O)CNS(=O)(=O)c1ccc(Oc2ccc(S(=O)(=O)NCC(=O)O)cc2)cc1 at or over 20% in terms of growth?
Y

Please tell me: is the compound COc1ccc(CN2C(=O)/C(=C/c3nc(CO)cs3)SC2=S)cc1 at or over 20% in terms of growth?
N

Please tell me: is the compound COc1ccc(-c2nc3cc(Cl)c(Cl)cc3n2CC(=O)N=Nc2c(O)[nH]c3ccccc23)cc1 at or over 20% in terms of growth?
Y

Please tell me: is the compound NC(=O)N1N=C(c2cc3ccccc3oc2=O)CC1c1cn(-c2ccccc2)nc1-c1ccc(Cl)cc1 (centres undefined) at or over 20% in terms of growth?
Y

Please tell me: is the compound CN1CCN(c2ccc(C(=O)Nc3cccc(-c4cn(-c5ccc(S(N)(=O)=O)cc5)nn4)c3)cc2C(F)(F)F)CC1 at or over 20% in terms of growth?
N

Please tell me: is the compound COCCOc1ccc(-c2csc(NC(=O)CN3CCN(CCO)CC3)n2)cc1NS(=O)(=O)c1cccc2c(N(C)C)cccc12 at or over 20% in terms of growth?
Y

* * *

Test system: M14 melanoma
Assay: NCI-60 one-dose screen, 48 h (100 = growth as untreated, 0 = no growth, -100 = all killed)
Conditions: 10 µM unless noted
The panel holds about 83,000 compounds, 20% with a hit somewhere; the sample as a whole holds those more often.
Hi! Could you tag entries with growth below 70% as Condition met, and those at or above as Condition not met? Much appreciated.

compound | cat
O=C(Nc1cc(Cl)cc(Cl)c1)Nc1ccc2oc(=O)ccc2c1 | Condition met

is_below(growth, 70%) for Nc1nc(-c2cccc([N+](=O)[O-])c2)c(N=Nc2ccccc2Cl)s1 ?
Condition not met

is_below(growth, 70%) for CCC(=O)Nc1ccc(-c2nc(-c3cccc(O)c3)c(-c3ccnc(Br)c3)[nH]2)cc1 ?
Condition met

is_below(growth, 70%) for Cc1nn(-c2ccc(Cl)cc2)c(C)c1N=Nc1ccc2oc(=O)ccc2c1 ?
Condition not met

is_below(growth, 70%) for O=C(N/N=C\c1ccc(Cl)cc1)c1ccc2nc(-c3ccc(Br)cc3)[nH]c2c1 ?
Condition met

is_below(growth, 70%) for c1ccc(-c2n(Cc3ccc4ccccc4c3)c3c4ccccc4c4ccccc4c3[n+]2Cc2ccc3ccccc3c2)cc1 ?
Condition met

is_below(growth, 70%) for CS(=O)c1nccc(-c2c(-c3ccc(F)c(OCCc4ccc(F)cc4)c3)nc3sccn23)n1 (configuration not stated) ?
Condition met

// provenance: PubChem BioAssay (NCI)
